Catalogue of Ki readings, one per entry.
Biological target: Somatostatin receptor type 3 (Homo sapiens, UniProt P32745)
Sequence (P32745 whole entry): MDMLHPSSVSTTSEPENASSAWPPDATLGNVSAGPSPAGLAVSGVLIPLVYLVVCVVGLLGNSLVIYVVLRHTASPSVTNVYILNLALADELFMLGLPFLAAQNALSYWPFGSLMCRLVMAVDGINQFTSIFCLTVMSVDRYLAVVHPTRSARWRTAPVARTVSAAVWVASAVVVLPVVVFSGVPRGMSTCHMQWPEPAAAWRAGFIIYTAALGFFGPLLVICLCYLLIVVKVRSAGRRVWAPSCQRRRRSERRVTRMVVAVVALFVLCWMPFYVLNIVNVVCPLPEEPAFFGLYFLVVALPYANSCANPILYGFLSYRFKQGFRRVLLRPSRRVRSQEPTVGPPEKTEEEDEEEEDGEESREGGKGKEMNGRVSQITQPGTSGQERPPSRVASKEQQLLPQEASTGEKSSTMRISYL

// solved cases for Ki follow
compoundString: C[C@@H](O)CN1CCC(=O)N(Cc2ccccc2)CCC(=O)N(Cc2ccccc2)CCC(=O)N(CCc2c[nH]c3ccccc23)CC(=O)N(CCCCN)CCC1=O
Ki: 2400 nM
//
compoundString: COC(=O)CCN(Cc1ccccc1)C(=O)CCN(C[C@@H](C)O)C(=O)CCN(CCCCN)C(=O)CCN(CCc1c[nH]c2ccccc12)C(=O)CCN(Cc1ccccc1)C(C)=O
Ki: 2700 nM
//
compoundString: COC(=O)CCN(Cc1ccccc1)C(=O)CCN(C[C@@H](C)O)C(=O)CCN(CCCCN)C(=O)CN(CCc1c[nH]c2ccccc12)C(=O)CCN(Cc1ccccc1)C(C)=O
Ki: 3100 nM

// switching to the query compound
Measured Ki, "C[C@@H](O)CN1CCC(=O)N(Cc2ccccc2)CCC(=O)N(CCc2c[nH]c3ccccc23)CCC(=O)N(CCCCN)CCC1=O" : 22000 nM

----------
The following are reported Ki results, target or system Somatostatin receptor type 1 (Homo sapiens, UniProt P30872).
The response must be a number in µM with no trailing unit.

compoundString: COC(=O)CCN(Cc1ccccc1)C(=O)CCN(C[C@@H](C)O)C(=O)CCN(CCCCN)C(=O)CCN(CCc1c[nH]c2ccccc12)C(=O)CCN(Cc1ccccc1)C(C)=O
Ki, µM: 12

Please turn your attention to the following entry.
Entry "C[C@@H](O)CN1CCC(=O)N(Cc2ccccc2)CCC(=O)N(Cc2ccccc2)CCC(=O)N(CCc2c[nH]c3ccccc23)CC(=O)N(CCCCN)CCC1=O" , tested on Somatostatin receptor type 1 (Homo sapiens, UniProt P30872), has a reported Ki of 16

----------
The following molecules each carry a recorded Ki for Somatostatin receptor type 4 (Homo sapiens, UniProt P31391).
The response must be a number in µM with no trailing unit.

compoundString: C[C@@H](O)CN1CCC(=O)N(Cc2ccccc2)CCC(=O)N(Cc2ccccc2)CCC(=O)N(CCc2c[nH]c3ccccc23)CC(=O)N(CCCCN)CCC1=O
observedProperty: Ki
measurementUnits: µM
observedResult: 7.2

From here, focus on the item given below.
The reported Somatostatin receptor type 4 (Homo sapiens, UniProt P31391) Ki of "C[C@@H](O)CN1CCC(=O)N(Cc2ccccc2)CCC(=O)N(CCc2c[nH]c3ccccc23)CC(=O)N(CCCCN)CCC1=O" is 20

----------
Target: Somatostatin receptor type 5 (Homo sapiens, UniProt P35346)
Sequence (P35346 whole entry): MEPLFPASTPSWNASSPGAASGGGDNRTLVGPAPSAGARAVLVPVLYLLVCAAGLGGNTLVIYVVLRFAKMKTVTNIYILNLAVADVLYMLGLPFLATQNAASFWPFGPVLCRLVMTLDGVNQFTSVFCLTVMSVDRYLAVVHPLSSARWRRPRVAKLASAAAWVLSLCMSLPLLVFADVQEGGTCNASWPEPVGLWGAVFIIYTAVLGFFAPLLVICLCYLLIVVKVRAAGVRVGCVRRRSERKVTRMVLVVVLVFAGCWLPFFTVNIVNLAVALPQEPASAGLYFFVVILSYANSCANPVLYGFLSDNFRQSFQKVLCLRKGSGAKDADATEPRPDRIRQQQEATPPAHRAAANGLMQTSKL
observedProperty: pKi
For clarity, pKi is expressed as the negative log10 of concentration in mol/L.

Past entries and their recorded results:
compoundString: COC(=O)CCN(Cc1ccccc1)C(=O)CCN(C[C@@H](C)O)C(=O)CCN(CCCCN)C(=O)CCN(CCc1c[nH]c2ccccc12)C(=O)CCN(Cc1ccccc1)C(C)=O
testSystem: Somatostatin receptor type 5 (Homo sapiens, UniProt P35346)
pKi: 4.96
//
compoundString: C[C@@H](O)CN1CCC(=O)N(Cc2ccccc2)CCC(=O)N(Cc2ccccc2)CCC(=O)N(CCc2c[nH]c3ccccc23)CCC(=O)N(CCCCN)CCC1=O
testSystem: Somatostatin receptor type 5 (Homo sapiens, UniProt P35346)
pKi: 5.77

Then there is this compound:
The measured pKi associated with "C[C@@H](O)CN1CCC(=O)N(Cc2ccccc2)CCC(=O)N(Cc2ccccc2)CCC(=O)N(CCc2c[nH]c3ccccc23)CC(=O)N(CCCCN)CCC1=O" reads 5.68
